# measuredTarget: Sodium/glucose cotransporter 2 (Homo sapiens, UniProt P31639)
# assay: Inhibition of human SGLT2 transfected in HEK293.ETN cells assessed as AMG uptake after 1.5 hrs by scintillation counting
pIC50: −log10 of the molar value.
endpointLabel: pIC50

{"columns": ["compoundStructureString", "pIC50"],
 "data": [
  ["COc1c(C)cccc1Cc1cc2c(cc1Cl)CO[C@]21O[C@H](CO)[C@@H](O)[C@H](O)[C@H]1O", 8.00],
  ["CCc1ccc(Cc2cc3c(cc2Cl)CO[C@]32O[C@H](COCC(F)(F)F)[C@@H](O)[C@H](O)[C@H]2O)cc1", 7.15],
  ["CCc1ccc(C(F)(F)c2cc3c(cc2Cl)CO[C@]32O[C@H](CO)[C@@H](O)[C@H](O)[C@H]2O)cc1", 8.15],
  ["CCc1ccc(Cc2cc3c(cc2Cl)CO[C@]32O[C@H](CO)[C@@H](O)[C@H](O)[C@H]2O)cc1", 8.18],
  ["CCc1ccc(Cc2cc3c(cc2Cl)CO[C@]32O[C@H](CN=[N+]=[N-])[C@@H](O)[C@H](O)[C@H]2O)cc1", 8.00],
  ["CC(C)c1ccc(Cc2cc3c(cc2Cl)CO[C@]32O[C@H](CO)[C@@H](O)[C@H](O)[C@H]2O)cc1", 8.15],
  ["CC(C)(C)c1ccc(Cc2cc3c(cc2Cl)CO[C@]32O[C@H](CO)[C@@H](O)[C@H](O)[C@H]2O)cc1", 7.89],
  ["CCc1ccc(Cc2cc3c(cc2Cl)CO[C@]32O[C@H](COC)[C@@H](O)[C@H](O)[C@H]2O)cc1", 8.24]
]}

1 = CCc1ccc(Cc2cc3c(cc2F)CO[C@]32O[C@H](CO)[C@@H](O)[C@H](O)[C@H]2O)cc1
2 = CCOc1cc(F)ccc1Cc1cc2c(cc1Cl)CO[C@]21O[C@H](CO)[C@@H](O)[C@H](O)[C@H]1O
3 = COc1ccc(Cc2cc3c(cc2Cl)CO[C@]32O[C@H](CO)[C@@H](O)[C@H](O)[C@H]2O)cc1
4 = CCOc1ccc(Cc2cc3c(cc2Cl)CO[C@]32O[C@H](CO)[C@@H](O)[C@H](O)[C@H]2O)cc1Cl
Enquiry: Let's sort these by pIC50, smallest first. Go ahead? Would you mind listing the labels in the order asked for?
Return: 2, 4, 1, 3
(2: 6.00, 4: 7.17, 1: 8.07, 3: 8.60)

I = CCOc1ccc(Cc2cc3c(cc2Cl)CO[C@]32O[C@H](CO)[C@@H](O)[C@H](O)[C@H]2O)cc1
II = CCc1ccc(C(=O)c2cc3c(cc2Cl)CO[C@]32O[C@H](CO)[C@@H](O)[C@H](O)[C@H]2O)cc1
Enquiry: Min pIC50? I | II // return label of chosen record
Return: II
(II: 7.66, I: 8.19)

* * *

# measuredTarget: Sodium/glucose cotransporter 2 (Homo sapiens, UniProt P31639)
# Sequence (P31639 whole entry): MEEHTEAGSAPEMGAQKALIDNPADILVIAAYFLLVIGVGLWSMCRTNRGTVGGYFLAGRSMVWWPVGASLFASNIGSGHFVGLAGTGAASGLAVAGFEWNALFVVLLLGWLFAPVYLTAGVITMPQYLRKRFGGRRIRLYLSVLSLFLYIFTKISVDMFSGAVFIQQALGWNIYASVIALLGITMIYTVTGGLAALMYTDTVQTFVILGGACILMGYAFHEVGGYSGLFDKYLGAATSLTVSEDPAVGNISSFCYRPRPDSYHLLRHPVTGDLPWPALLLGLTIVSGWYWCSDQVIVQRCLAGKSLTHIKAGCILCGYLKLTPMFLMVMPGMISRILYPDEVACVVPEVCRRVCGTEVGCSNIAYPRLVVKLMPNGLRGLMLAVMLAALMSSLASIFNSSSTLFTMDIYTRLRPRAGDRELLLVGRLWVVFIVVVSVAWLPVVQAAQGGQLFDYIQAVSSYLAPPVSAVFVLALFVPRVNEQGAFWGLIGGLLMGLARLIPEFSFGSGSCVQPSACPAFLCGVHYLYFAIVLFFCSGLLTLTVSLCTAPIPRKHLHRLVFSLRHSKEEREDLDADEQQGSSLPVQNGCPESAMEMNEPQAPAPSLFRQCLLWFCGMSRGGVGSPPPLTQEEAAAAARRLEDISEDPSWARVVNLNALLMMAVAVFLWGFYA
# assay: Inhibition of human SGLT2 transfected in HEK293.ETN cells assessed as AMG uptake after 1.5 hrs by scintillation counting
pIC50: −log10 of the molar value.
endpointLabel: pIC50

Solved cases below.
{"columns": ["compoundStructureString", "endpointLabel", "result"],
 "data": [
  ["CCc1ccc(Cc2cccc3c2CO[C@]32O[C@H](CO)[C@@H](O)[C@H](O)[C@H]2O)cc1", "pIC50", "< 6.00"],
  ["COc1ccc(Cc2cc3c(cc2Cl)CO[C@]32O[C@H](CO)[C@@H](O)[C@H](O)[C@H]2O)c(C)c1", "pIC50", "< 6.00"],
  ["Cc1cccc(Cc2cc3c(cc2Cl)CO[C@]32O[C@H](CO)[C@@H](O)[C@H](O)[C@H]2O)c1F", "pIC50", 9.10]
]}

We now examine a further molecule.
Reported pIC50 ( CCOc1ccc(Cc2cc3c(cc2Cl)CO[C@]32O[C@H](CO)[C@@H](O)[C@H](O)[C@H]2O)c(Cl)c1 ) = < 6.00
